- Study Target: T1, Boi1, P38041
- T1 sequence (P38041 1-86, looked up): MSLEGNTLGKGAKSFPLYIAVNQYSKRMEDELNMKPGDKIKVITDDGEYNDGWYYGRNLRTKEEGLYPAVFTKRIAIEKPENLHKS
- Experimental Protocol: SPOT array
- Experimental Setup: median of control spots 1162
# strict inequality: SPOT intensity < 4 yields 1, everything else yields 0

I'd appreciate it if you could check whether `RRLRDKYKLPIVDAD` has SPOT intensity smaller than 4.
0

Is the reported SPOT intensity for `RFKRHRLEFPFNESE` strictly below 4?
1

is_below(SPOT intensity, 4) for `KNPRRQLQIPRQQPS` ?
1

Decide: SPOT intensity of `PKRRAPPPVPKKPSS` strictly below 4?
1

Check if SPOT intensity falls below 4 for `RNNRPVPPPPPMRTT` .
1

API: query returns whether the binder falls strictly under 4 in SPOT intensity. Query: `SSTPTTPERPKRKSG`
1

Answer whether the binder `NTMKKRPAPPSLPSL` has SPOT intensity strictly less than 4
0

A record lists `ALRRRLPVTRSKINW` . Is its SPOT intensity below 4?
0
